These measurements were taken from PubChem BioAssay (NCI).

assay: NCI Yeast Anticancer Drug Screen. Data for the bub3 strain (AID 167); conditions: S. cerevisiae bub3 mutant strain, at 50.0 µM, stronger effect = higher value
The panel holds about 79,000 compounds, 15% with a hit somewhere; the sample as a whole holds those more often.
Reported property: growth inhibition (%)
State just the number; it will be interpreted in %.

- Compound: "OC1=C2CCCCCC2=[N+]2CCCCC2C1 (stereo unspecified)"
  Unit tag: "%"
  growth inhibition: 32.2
- Compound: "O=C1N[C@H]2[C@H](O)[C@H](O)[C@@H](O)[C@H](O)[C@@H]2c2cc3c(c(O)c21)OCO3"
  Unit tag: "%"
  growth inhibition: 68.7
- Compound: "CCCCOC(=O)c1ccccc1N"
  Unit tag: "%"
  growth inhibition: 0.2

*Q* Look at this compound and give its reported growth inhibition. CC(c1ccccc1)N1O[C@]12CC[C@@]1(C)C(CCCC13OCCO3)C2 (stereo partly specified)
*A* 91

*Q* Look at this compound and give its reported growth inhibition. `O=C1C=Cc2ccccc2C1=O`
*A* 91.9

*Q* Look at this compound and give its reported growth inhibition. CN1CCC2CC(=O)NC1(C)C2(C)C (stereo unspecified)
*A* -2.2

*Q* Look at this compound and give its reported growth inhibition. CCOP(=S)(OCC)OCC1OC(OC)C2OC(C)(C)OC12 (stereo unspecified)
*A* 11.8

*Q* Look at this compound and give its reported growth inhibition. C/C(=N\N(C)C)C(CN1CCCCC1)C(c1ccccc1)c1c(O)c2ccccc2oc1=O (stereo unspecified)
*A* 30.1

*Q* Look at this compound and give its reported growth inhibition. `CN(C)c1ccc(N=Nc2cccc(C(=O)[O-])c2)cc1.CN(C)c1ccc(N=Nc2cccc(C(=O)[O-])c2)cc1.NC1CCCCC1N.[Pt+4]`
*A* -28.1

====

assay: NCI Yeast Anticancer Drug Screen. Data for the sgs1 mgt1 strain (AID 161);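 further: 0% = growth of cultures given vehicle only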; conditions: S. cerevisiae sgs1 mgt1 strain, at 50.0 µM
The panel holds about 79,000 compounds, 15% with a hit somewhere; the sample as a whole holds those more often. Calls of active or inactive are those of the source. No stated cut-off is given here; in the data, active means growth inhibition above about 70%; inactive means the rest.
Response enum: 1 = active, 0 = inactive

- Compound: "O=C(CN1CCCCC1)c1ccc(Br)cc1"
  Class: 0
- Compound: "COc1ccc(-c2nc(-c3ccc(N=Cc4ccc(N(CCCl)CCCl)cc4)cc3)cs2)cc1"
  Class: 0
- Compound: "N#CC(C#N)=Cc1cccc(C#N)c1"
  Class: 0

*Q* Entry COc1cc(=O)oc(/C=C/C=C/C=C/C(C)=C\C2(C)OC(C)C(C)(O)C2O)c1C (centres undefined) : call = ?
*A* 0

*Q* Entry `CC1(C)C=C(NC(=O)N2CC2)C(C)(C)N1O` : call = ?
*A* 0

*Q* Entry `O=[N+]([O-])c1ccc([Se]c2ncccn2)c([N+](=O)[O-])c1` : call = ?
*A* 0

*Q* Entry `O=C(O)CCCNSc1ccccc1[N+](=O)[O-]` : call = ?
*A* 1

*Q* Entry `Cc1cc(Cl)nc(N)n1` : call = ?
*A* 0

*Q* Entry `Cc1cc2c(cc1O)C(C)(C)CCC2(C)C` : call = ?
*A* 0

====

assay: NCI Yeast Anticancer Drug Screen. Data for the bub3 strain (AID 167); details: S. cerevisiae bub3 mutant strain, at 50.0 µM
About 79,000 compounds went through this panel and 15% of them were active in at least one assay; those are over-represented in the sample as a whole. The source made the active and inactive calls. No stated cut-off is given here; in the data, active means growth inhibition above about 70%; inactive means the rest.
Response enum: active, inactive

- Compound: "NP(=S)(Oc1ccc(Cl)cc1)Oc1ccc(Cl)cc1"
  Class: "inactive"
- Compound: "CNC(=O)Oc1ccc(C=Nc2cccc([N+](=O)[O-])c2)cc1"
  Class: "inactive"
- Compound: "[Cu+2].[O-]c1ccc2ccccc2c1N=Nc1ccccc1.[O-]c1ccc2ccccc2c1N=Nc1ccccc1"
  Class: "inactive"
- Compound: "Oc1c(Cl)cc(Cl)cc1Cl.[Cu+2]"
  Class: "active"
- Compound: "CSCCC([NH-])C(=O)O.CSCCC([NH-])C(=O)O.[Cu+2] (configuration not stated)"
  Class: "inactive"
- Compound: "CCOc1ccc(OCC)c(C(O)C(C)NC(C)C)c1 (configuration not stated)"
  Class: "inactive"

*Q* Entry `C=CCc1cc(-c2cc(CC=C)c(O)c(CN(CCCl)CCCl)c2)cc(CN(CCCl)CCCl)c1O` : call = ?
*A* inactive

*Q* Entry `O=[N+]([O-])/C=C/c1cccc(F)c1` : call = ?
*A* active

*Q* Entry `S=c1sc(-c2ccc(Cl)cc2)c[se]1` : call = ?
*A* inactive

*Q* Entry `Cn1c(=O)n(C)c(=O)n(C)c1=O` : call = ?
*A* inactive

*Q* Entry `CC1=NCCN=C(C)C1[N+](=O)[O-]` : call = ?
*A* inactive

*Q* Entry `NCCN1CC2CCC(CC2)C1` : call = ?
*A* inactive

*Q* Entry CC(=O)OCC12CC(O)C(C)=CC1OC1C(O)C(OC(C)=O)C2(C)C12CO2 (configuration not stated) : call = ?
*A* active

*Q* Entry `CCCCCCCCCl` : call = ?
*A* inactive

*Q* Entry CCOP(=O)(OCC)C(C#N)Cc1ccco1 (configuration not stated) : call = ?
*A* inactive

*Q* Entry CP(O)(=S)C1CCCCC1 (configuration not stated) (tested in a mixture with another compound) : call = ?
*A* inactive

*Q* Entry C[C@]12CCC(O)CC1=CC[C@@H]1[C@@H]2CC[C@]2(C)C(O)[C@H](n3ccnc3)C[C@@H]12 (some centres not stated) : call = ?
*A* inactive

*Q* Entry `ClCCN(CCCl)c1ccc(CCN2CCOCC2)cc1` : call = ?
*A* inactive

*Q* Entry `Cn1c(O)c(C(=O)NC2CCCCC2)c(=O)n(C)c1=S` : call = ?
*A* inactive

*Q* Entry `O=C(O)C(O)(c1ccc(-c2ccccc2)cc1)c1ccc(-c2ccccc2)cc1` : call = ?
*A* active

*Q* Entry `Oc1c(Cl)cc(Cl)c2ccccc12` : call = ?
*A* inactive

*Q* Entry `O=P(c1ccccc1)(c1ccccc1)c1ccccc1.[Cl][Sn]([c]1ccccc1)([c]1ccccc1)[c]1ccccc1` : call = ?
*A* active

====

test: NCI Yeast Anticancer Drug Screen. Data for the mec2-1 strain (AID 157); conditions: S. cerevisiae mec2-1 strain, at 5.0 µM (retest, dose inferred, filed as 0.5), stronger effect = higher value
The panel holds about 79,000 compounds, 15% with a hit somewhere; the sample as a whole holds those more often.
growth inhibition vs 10%: at or above is yes, below is no.

*Q* Record `O=c1[nH]c2ccccc2n1C1CCN(CCCC(c2ccc(F)cc2)c2ccc(F)cc2)CC1` ; criterion: growth inhibition no lower than 10%. Met?
*A* yes

*Q* Record `CCO[C@@H]([CH2][Hg][Cl])[C@](C)([CH2][Hg][Cl])OCC` ; criterion: growth inhibition no lower than 10%. Met?
*A* yes

*Q* Record `O=C(O)CN1CCN(CC(=O)O)CC(=O)[O][Hg][O]C(=O)C1` ; criterion: growth inhibition no lower than 10%. Met?
*A* yes

*Q* Record `CCCCCCCC[As](C)(=O)O` ; criterion: growth inhibition no lower than 10%. Met?
*A* no

*Q* Record `O=c1c2ccccc2[nH]c(=S)n1-c1cccc(C(F)(F)F)c1` ; criterion: growth inhibition no lower than 10%. Met?
*A* yes

*Q* Record `CN(C)C(=S)[S][Hg][c]1ccccc1` ; criterion: growth inhibition no lower than 10%. Met?
*A* yes

*Q* Record `COc1c(Br)cc(/C=C/[N+](=O)[O-])cc1Br` ; criterion: growth inhibition no lower than 10%. Met?
*A* yes

*Q* Record `CCOP(=O)(OCC)/C(C#N)=C/c1cccc(F)c1` ; criterion: growth inhibition no lower than 10%. Met?
*A* no

====

assay: NCI Yeast Anticancer Drug Screen. Data for the sgs1 mgt1 strain (AID 161);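 further: 0% = growth of cultures given vehicle only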; details: S. cerevisiae sgs1 mgt1 strain, at 5.0 µM (retest, dose inferred, filed as 0.5)
Compounds without any hit were thinned out: in the full panel of roughly 79,000, 15% have a hit. The source made the active and inactive calls. No stated cut-off is given here; in the data, active means growth inhibition above about 70%; inactive means the rest.
Response enum: YES for active, NO for inactive

The following molecules have reported results that may help.
- Molecule: "C[N+](C)(C)CC1CCCC1=O (stereo not given)"
  Class: "NO"
- Molecule: "CCC(C)c1cnc(CC(C)C)c(=O)n1O (stereo not given)"
  Class: "YES"
- Molecule: "C[CH2][Sn]1([CH2]C)[O]C(=O)CC(=O)[O]1"
  Class: "NO"

*Q* Entry `CCOC(=O)NP(=O)(NNc1ccccc1)NNc1ccccc1` : call = ?
*A* YES

*Q* Entry `Oc1c(Cl)c(Cl)c(O)c(Cl)c1Cl` : call = ?
*A* NO

*Q* Entry `Nc1c([N+](=O)[O-])cc(Cl)cc1[N+](=O)[O-]` : call = ?
*A* NO

*Q* Entry `COC(=O)[C@]1(C)CCC[C@]2(C)[C@H]3CC4OO[C@@]3(CC[C@H]21)[C@H]1O[C@@]41C(C)C` : call = ?
*A* YES

*Q* Entry `CCC[CH2][Sn]([CH2]CCC)([N]=C=S)[N]=C=S` : call = ?
*A* YES

*Q* Entry O=C(CBr)OCC(Br)CBr (stereo not given) : call = ?
*A* YES
